Test system: RXRa DBDmut IVT, anti-RXR (DBD mutation: RXRa K156A/R161A, NR concentration 90 nM)
Experiment: PBM binding z-score (relative to random genomic background probes); higher = stronger binding; sequences stand for … in GC…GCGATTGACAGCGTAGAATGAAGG
measure: PBM binding z-score
Give a plain numeric answer without units written out.

[ask] Looking for the measured PBM binding z-score of CGTCCAAGGTCAATGCTAGGTCCGTGAAAGCATT , can you help?
[reply] 3.67

[ask] Bench note: what PBM binding z-score did CTCGAAAGGTCGGTTGTGGTGAGTATACGGATAA show?
[reply] 1.08

[ask] Bench note: what PBM binding z-score did TCTTGTAGATCAGCAGGATAAGAAAGCTGGCCAA show?
[reply] 0.379

[ask] May I ask what PBM binding z-score has been recorded for CGTCGAAGGTCAGAGAGGTCAGTGAATGCCGAGT ?
[reply] 2.6

[ask] Reported PBM binding z-score for TCTAGTAGGTTAGGGGCATTCAGAATGGCGTCGA : what is it?
[reply] 1.42

[ask] Look at this sequence and give its reported PBM binding z-score. ATCTCTAGGTAAGACTCAGTTAAGTGAAGAACGC
[reply] 0.443

[ask] Please give the measured PBM binding z-score for this sequence: TCTGGTTGGTCACGGAGGTCACACACGACGGGTA
[reply] 0.702

[ask] Fill in: PBM binding z-score of CTCGAAAGGTCGTGCTCAGGTGAGGATACCAAAC is ___
[reply] 2.24

[ask] Form field: reported PBM binding z-score of CCCTACGGGTCACGAGGTTATAGCACGACGAGCG
[reply] 1.19

[ask] Please look up its PBM binding z-score: TAGCCTAGGTCATTCAGGGCCCAGTATAGAAAGC
[reply] 1.96

[ask] Which PBM binding z-score is reported for this sequence? GCTTGTAAATCAAGGTTAAGAAAGACTAAGCTAA
[reply] 0.137

[ask] Suppose we examine the sequence CCGACTGGGGCATAAGGTTACCAAAAGCCAGCCC ; what PBM binding z-score value has been reported?
[reply] -0.369

[ask] Recorded PBM binding z-score of CCTTACGGGTCACTGACAGGTTATAGCATTTGGA , please.
[reply] 1.95

[ask] // returns reported PBM binding z-score for input ACAGACAGGTGAGTGCAGGTAACTCAGCTGGACG
[reply] 0.222

[ask] What value of PBM binding z-score has been reported for the following sequence? CGTCCAAGGTCAGAAGGTCAGTGAAAGCGACGTG
[reply] 2.87

[ask] For the sequence shown here, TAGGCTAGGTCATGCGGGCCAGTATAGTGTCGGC , give the reported PBM binding z-score.
[reply] 0.47

[ask] I have this sequence here, TCATATAGGTAAATGCTAGGAGAAAGTCCGATCT , and I need its recorded PBM binding z-score.
[reply] 1.67

[ask] Query: PBM binding z-score; subject: TCATATAGGTAAAGGTAAAAGTCGAACGATATGA
[reply] 0.705

[ask] Recorded PBM binding z-score of ATCGAAAGGTGGAGGTGAGTATAGAGAAAGGGAA , please.
[reply] -0.665

[ask] What does the data say about its PBM binding z-score? Entry: ATCGAAAGGTCTAGGTGAGTATAGAGAAAGGGAA
[reply] 0.133

[ask] What value of measured PBM binding z-score is listed for CGTCAAAGTTCAAATAAGGTAACGTAAAGCACGC ?
[reply] 4.78

[ask] Look up PBM binding z-score for this sequence: CTCGAAAGGTCGCGCTCAGGTGAGTATACCAAAC
[reply] 2.28

[ask] May I ask what PBM binding z-score has been recorded for CCTACTGGGCCATTCAAAGGTCATTGATCATATG ?
[reply] 0.609

[ask] Fill blank: measured PBM binding z-score of the sequence GCATCTAGGTAATACAAGGTGAAAGTCCGATTGT is ____.
[reply] -0.0985
